# maps each entry to its pIC50
experiment: Cytotoxicity against human WM164 cells after 72 hrs by XTT assay; type: functional, cell-based; settings: WM164, 72 h
pIC50: −log10 of the molar value.
endpoint: pIC50

molecule: CC(=O)O[C@H](CC=C(C)C)C1=CC(=O)c2c(O)ccc(O)c2C1=O
endpoint: pIC50
obs-value: 4.15
//
molecule: CC[C@]1(O)C[C@@H]2CN(CCc3c([nH]c4ccccc34)[C@@](C(=O)OC)(c3cc4c(cc3OC)N(C)[C@H]3[C@@](O)(C(=O)OC)[C@H](OC(C)=O)[C@]5(CC)C=CCN6CC[C@]43[C@@H]65)C2)C1
endpoint: pIC50
obs-value: 8.38
//
molecule: CC(C)=CC[C@@H](OC(=O)CC(C)(C)O)C1=CC(=O)c2c(O)ccc(O)c2C1=O [BETA-HYDROXYISOVALERYLSHIKONIN]
endpoint: pIC50
obs-value: 4.51
//
molecule: CC(C)=CC[C@@H](OC(=O)C=C(C)C)C1=CC(=O)c2c(O)ccc(O)c2C1=O
endpoint: pIC50
obs-value: 5.08
